Recorded pKi by entry
target: Histamine H4 receptor (Homo sapiens, UniProt Q9H3N8)
Sequence (Q9H3N8 whole entry): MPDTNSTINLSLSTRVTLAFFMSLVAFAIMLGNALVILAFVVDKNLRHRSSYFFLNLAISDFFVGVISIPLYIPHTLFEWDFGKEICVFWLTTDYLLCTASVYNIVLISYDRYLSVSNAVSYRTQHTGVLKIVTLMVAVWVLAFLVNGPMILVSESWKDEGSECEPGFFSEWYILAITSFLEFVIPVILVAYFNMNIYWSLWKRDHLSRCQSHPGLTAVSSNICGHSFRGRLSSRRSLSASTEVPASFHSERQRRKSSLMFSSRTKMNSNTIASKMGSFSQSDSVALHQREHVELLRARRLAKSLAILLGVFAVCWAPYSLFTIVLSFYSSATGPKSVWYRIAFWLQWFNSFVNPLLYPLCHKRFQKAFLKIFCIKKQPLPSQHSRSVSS
test details: Antagonist activity at human histamine H4 receptor by functional assay
pKi: −log10 of the molar value.
measurement type: pKi

>>> print(df.to_string())
                                   compound  value_relation_sign  reported_result
0          CN1CCN(c2cc(NCCC(C)(C)C)ncn2)CC1                    =             7.43
1      COc1ccccc1Cn1ccc(NCCc2cnc[nH]2)nc1=O                    <             5.70
2  COc1cccc(C(O)(COc2ccccc2C)CN2CCN(C)CC2)c1 (stereo not given)                    <             5.70
3         CC(C)(C)CCNc1cc(N[C@H]2CCNC2)ncn1                    =             6.24
4      CN1CCN(C(=O)c2nc3cc(Cl)ccc3[nH]2)CC1                    =             7.40
